molecular target: Kappa-type opioid receptor (Homo sapiens); assay type: functional
Sequence (P41145 whole entry): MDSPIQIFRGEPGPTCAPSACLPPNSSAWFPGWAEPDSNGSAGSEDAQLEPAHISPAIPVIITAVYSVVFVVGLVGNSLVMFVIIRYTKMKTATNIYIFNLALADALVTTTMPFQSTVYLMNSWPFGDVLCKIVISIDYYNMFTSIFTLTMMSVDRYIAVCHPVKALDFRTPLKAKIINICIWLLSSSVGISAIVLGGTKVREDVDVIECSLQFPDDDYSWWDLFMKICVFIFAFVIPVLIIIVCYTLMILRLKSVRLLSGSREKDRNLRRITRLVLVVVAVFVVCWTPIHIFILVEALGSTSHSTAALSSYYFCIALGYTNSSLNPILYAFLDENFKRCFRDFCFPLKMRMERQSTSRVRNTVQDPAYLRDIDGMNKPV
value type: EC50 (nM)
Give the quantity in nM, number only.

Ask: GET /values?readout=EC50&item= Brc1ccc(CSc2nnc(-c3ccccn3)n2Cc2ccco2)cc1
Reply: 1880

###

test: P. falciparum Dd2 growth inhibitors, dose response, SYBR Green, cherry-picked samples (AID 1159567); assay type: functional, cell-based
Active and inactive are the calls of the source.
value type: AC50

Record excerpt, results attached:
CC(C)(C)[S@@+]([O-])N1Cc2cc(C(=O)N[C@@H]3CCN(Cc4ccccc4)C3)nc(-c3cccc(-c4ccncc4)c3)c2[C@H]1CCO : 6630 nM (active)
C[C@H](CO)N1C[C@H](C)[C@H](CN(C)C(=O)C2CCCCC2)Oc2ncc(C#Cc3cccc(F)c3)cc2C1=O : 1390 nM (active)
C[C@@H]1CN([C@@H](C)CO)C(=O)c2c(c3ccccc3n2C)-c2ccccc2CO[C@@H]1CN(C)Cc1ccc(Cl)c(Cl)c1 : 1340 nM (active)

Ask: GET /values?readout=AC50&item= COc1ccc(CN2CC3(C2)CN(C(=O)CN(C)C)[C@H](CO)c2[nH]c4cc(OC)ccc4c23)cc1
Reply: 2870 nM (active)

###

Listed here: items and their measured EC50.
biological target: Corticotropin-releasing factor receptor 2/Corticotropin-releasing factor-binding protein (Homo sapiens, UniProt P24387+Q13324); assay: activators of CRF receptor 2 with binding protein – uHTS hits, confirmation (AID 602473); format: functional; details: read-out: EC50_Mean
Sequence (Q13324 whole entry): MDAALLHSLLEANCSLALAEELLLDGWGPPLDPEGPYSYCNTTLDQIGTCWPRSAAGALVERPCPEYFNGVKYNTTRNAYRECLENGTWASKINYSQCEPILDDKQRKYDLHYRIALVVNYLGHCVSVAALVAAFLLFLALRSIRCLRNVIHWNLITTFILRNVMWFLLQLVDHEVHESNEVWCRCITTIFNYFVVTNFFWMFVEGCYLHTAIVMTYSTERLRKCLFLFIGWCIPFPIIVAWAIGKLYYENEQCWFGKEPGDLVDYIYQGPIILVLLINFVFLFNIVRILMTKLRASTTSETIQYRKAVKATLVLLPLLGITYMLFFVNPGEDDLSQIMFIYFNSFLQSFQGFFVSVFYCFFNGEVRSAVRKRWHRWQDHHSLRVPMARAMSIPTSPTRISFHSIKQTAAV
Sequence (P24387 whole entry): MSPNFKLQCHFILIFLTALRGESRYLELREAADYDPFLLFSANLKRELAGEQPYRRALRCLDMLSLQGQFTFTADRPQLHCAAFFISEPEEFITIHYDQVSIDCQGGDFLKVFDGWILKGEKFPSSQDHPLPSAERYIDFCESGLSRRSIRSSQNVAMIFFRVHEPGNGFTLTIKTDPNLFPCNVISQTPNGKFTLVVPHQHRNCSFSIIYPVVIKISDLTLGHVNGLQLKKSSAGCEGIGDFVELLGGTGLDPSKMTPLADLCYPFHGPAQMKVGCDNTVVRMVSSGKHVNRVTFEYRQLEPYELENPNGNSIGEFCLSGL
Activity calls are given as the source filed them.

Record excerpt, results attached:
O=C(Nc1ccccc1)c1sccc1Oc1ccc([N+](=O)[O-])cc1F : > 53 µM (inactive)
O=C(C(c1ccccc1)c1ccccc1)N1CCN(CCN2C(=O)c3cccc4cccc(c34)C2=O)CC1 : > 53 µM (inactive)
COc1cccc(CSc2nnc(C(F)(F)F)n2Cc2ccc(F)cc2)c1 : > 53 µM (inactive)

Ask: GET /values?readout=EC50&item= CC(=O)c1cc(NC(=O)c2ccc(Cl)cc2)c(=O)oc1/C=C/N(C)C
Reply: 5 µM (active)

Ask: GET /values?readout=EC50&item= CCC(C)C1N=C(c2ccccc2)c2cc(Cl)ccc2N(CC(=O)NCc2ccco2)C1=O (stereo not given)
Reply: > 53 µM (inactive)

###

assay: Dd2 malaria parasite growth inhibition potency – SYBR Green, dry powder samples, dose response (AID 1159566); format: functional, cell-based;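 further: potency for growth inhibition with lower SYBR green DNA signal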
Calls of active or inactive are those of the source.
value type: AC50

Record excerpt, results attached:
COc1ccccc1C#Cc1ccc2c(c1)[C@@H]1NCC[C@@H]1[C@H](CO)N2 : 1.94 µM (active)
COc1ccccc1C#Cc1ccc([C@H]2[C@@H](C#N)N(C(=O)C3CCCC3)[C@H]2CO)cc1 : 0.474 µM (active)
COc1ccc(CN2CC3(C2)CN(C(=O)CN(C)C)[C@H](CO)c2[nH]c4cc(OC)ccc4c23)cc1 : 1.64 µM (active)

Consider now this further compound.
Ask: GET /values?readout=AC50&item= CCCC(=O)Nc1ccc2c(c1)OC[C@@H](C)N(Cc1ccc(F)cc1)C[C@@H](C)[C@H](OC)CN(C)C2=O
Reply: 0.753 µM (active)

###

Listed here: items and their measured EC50.
tested on: H4; test: Luminescence Cell-Based Dose Response HTS to Identify Activators of 5'UTR Stem-Loop Driven Prion Protein mRNA Translation in H4 Neuroglioblastoma Cells. [Related pubchem assays: 1829 (Project Summary), 1814 (Primary HTS)]; type: functional; details: Homo sapiens
Calls of active or inactive are those of the source.

Record excerpt, results attached:
Cc1sc2ncnc(N3CCC(C(=O)Nc4nc5ccc(Cl)cc5s4)CC3)c2c1C : 28.5 µM (active)
c1ccc(CNC2=NN=C(c3ccccc3)CS2)cc1 : 24.2 µM (active)
Sc1nnc(Cn2c(-c3ccccn3)nc3ccccc32)n1-c1ccc2c(c1)OCCO2 : 29.5 µM (active)
COc1ccc(NC(=O)Cn2nnc(-c3ccccc3NC(=O)c3cccs3)n2)cc1 : > 120 µM (not active)
CCCCc1nc2cc(C(=O)N(C)C3CCOCC3)ccc2o1 : 0.399 µM (active)

Ask: Short answer please: EC50, H4, entry O=C(ONc1ccc(N=NC(=O)c2ccccc2O)cc1)c1ccccc1
Reply: 28.8 µM (active)

Ask: Short answer please: EC50, H4, entry CCOc1ccc2nc(SCc3ccccc3C#N)sc2c1
Reply: 0.7 µM (active)

Ask: Short answer please: EC50, H4, entry CCOC(=O)c1cnn(-c2ncnc3c2cnn3C)c1N
Reply: 90.5 µM (active)

###

target: UniProtKB P9WMR3; experiment: DnaB intein splicing inhibitors, dose response, biochemical, cell-free fluorescence (AID 449749); assay type: functional
Active and inactive are the calls of the source.
The reply should name one outcome from 1 for active, 0 for inactive

Example entries begin here.
O=C(NCC1(c2ccccc2)CCCC1)C1(c2ccccc2)CCCC1 : 1
O=C(NCc1ccco1)/C(=C/c1cccc(C(F)(F)F)c1)c1nc2ccccc2[nH]1 : 0
COC1=C(c2ccccc2)C(=O)c2ccccc2C1=O : 1

Ask: Hi team, can someone confirm the assay call for COc1cc2c(cc1OC)-c1c(OC)c(OC)cc3c1[C@H](C2)N(C)CC3 ?
Reply: 1

Ask: Hi team, can someone confirm the assay call for CC(=O)C1=C(c2ccc(Br)cc2)C(=O)c2ccccc2C1=O ?
Reply: 1

Ask: Hi team, can someone confirm the assay call for O=C(CCl)N1CCN(S(=O)(=O)c2ccc3ccccc3c2)CC1 ?
Reply: 1

Ask: Hi team, can someone confirm the assay call for CCN(C(=O)c1ccc2c(Cl)c3c(nc2c1)CCC3)c1ccc(C)c(C)c1 ?
Reply: 1

Ask: Hi team, can someone confirm the assay call for O=C1C(Cl)=C(N2CCC(C(=O)O)CC2)C(=O)c2ccccc21 ?
Reply: 1

###

Listed here: items and their measured IC50.
molecular target: Fatty acid synthase (Homo sapiens, UniProt P49327); experiment: inhibition of human FAS-TE enzyme activity – biochemical, endpoint fluorescence intensity, uHTS hits, dose response (AID 624327); assay type: functional;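 further: fluorescence from hydrolysis of an O-methyl fluorescein acyl ester substrate by the enzyme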
Sequence (P49327 whole entry): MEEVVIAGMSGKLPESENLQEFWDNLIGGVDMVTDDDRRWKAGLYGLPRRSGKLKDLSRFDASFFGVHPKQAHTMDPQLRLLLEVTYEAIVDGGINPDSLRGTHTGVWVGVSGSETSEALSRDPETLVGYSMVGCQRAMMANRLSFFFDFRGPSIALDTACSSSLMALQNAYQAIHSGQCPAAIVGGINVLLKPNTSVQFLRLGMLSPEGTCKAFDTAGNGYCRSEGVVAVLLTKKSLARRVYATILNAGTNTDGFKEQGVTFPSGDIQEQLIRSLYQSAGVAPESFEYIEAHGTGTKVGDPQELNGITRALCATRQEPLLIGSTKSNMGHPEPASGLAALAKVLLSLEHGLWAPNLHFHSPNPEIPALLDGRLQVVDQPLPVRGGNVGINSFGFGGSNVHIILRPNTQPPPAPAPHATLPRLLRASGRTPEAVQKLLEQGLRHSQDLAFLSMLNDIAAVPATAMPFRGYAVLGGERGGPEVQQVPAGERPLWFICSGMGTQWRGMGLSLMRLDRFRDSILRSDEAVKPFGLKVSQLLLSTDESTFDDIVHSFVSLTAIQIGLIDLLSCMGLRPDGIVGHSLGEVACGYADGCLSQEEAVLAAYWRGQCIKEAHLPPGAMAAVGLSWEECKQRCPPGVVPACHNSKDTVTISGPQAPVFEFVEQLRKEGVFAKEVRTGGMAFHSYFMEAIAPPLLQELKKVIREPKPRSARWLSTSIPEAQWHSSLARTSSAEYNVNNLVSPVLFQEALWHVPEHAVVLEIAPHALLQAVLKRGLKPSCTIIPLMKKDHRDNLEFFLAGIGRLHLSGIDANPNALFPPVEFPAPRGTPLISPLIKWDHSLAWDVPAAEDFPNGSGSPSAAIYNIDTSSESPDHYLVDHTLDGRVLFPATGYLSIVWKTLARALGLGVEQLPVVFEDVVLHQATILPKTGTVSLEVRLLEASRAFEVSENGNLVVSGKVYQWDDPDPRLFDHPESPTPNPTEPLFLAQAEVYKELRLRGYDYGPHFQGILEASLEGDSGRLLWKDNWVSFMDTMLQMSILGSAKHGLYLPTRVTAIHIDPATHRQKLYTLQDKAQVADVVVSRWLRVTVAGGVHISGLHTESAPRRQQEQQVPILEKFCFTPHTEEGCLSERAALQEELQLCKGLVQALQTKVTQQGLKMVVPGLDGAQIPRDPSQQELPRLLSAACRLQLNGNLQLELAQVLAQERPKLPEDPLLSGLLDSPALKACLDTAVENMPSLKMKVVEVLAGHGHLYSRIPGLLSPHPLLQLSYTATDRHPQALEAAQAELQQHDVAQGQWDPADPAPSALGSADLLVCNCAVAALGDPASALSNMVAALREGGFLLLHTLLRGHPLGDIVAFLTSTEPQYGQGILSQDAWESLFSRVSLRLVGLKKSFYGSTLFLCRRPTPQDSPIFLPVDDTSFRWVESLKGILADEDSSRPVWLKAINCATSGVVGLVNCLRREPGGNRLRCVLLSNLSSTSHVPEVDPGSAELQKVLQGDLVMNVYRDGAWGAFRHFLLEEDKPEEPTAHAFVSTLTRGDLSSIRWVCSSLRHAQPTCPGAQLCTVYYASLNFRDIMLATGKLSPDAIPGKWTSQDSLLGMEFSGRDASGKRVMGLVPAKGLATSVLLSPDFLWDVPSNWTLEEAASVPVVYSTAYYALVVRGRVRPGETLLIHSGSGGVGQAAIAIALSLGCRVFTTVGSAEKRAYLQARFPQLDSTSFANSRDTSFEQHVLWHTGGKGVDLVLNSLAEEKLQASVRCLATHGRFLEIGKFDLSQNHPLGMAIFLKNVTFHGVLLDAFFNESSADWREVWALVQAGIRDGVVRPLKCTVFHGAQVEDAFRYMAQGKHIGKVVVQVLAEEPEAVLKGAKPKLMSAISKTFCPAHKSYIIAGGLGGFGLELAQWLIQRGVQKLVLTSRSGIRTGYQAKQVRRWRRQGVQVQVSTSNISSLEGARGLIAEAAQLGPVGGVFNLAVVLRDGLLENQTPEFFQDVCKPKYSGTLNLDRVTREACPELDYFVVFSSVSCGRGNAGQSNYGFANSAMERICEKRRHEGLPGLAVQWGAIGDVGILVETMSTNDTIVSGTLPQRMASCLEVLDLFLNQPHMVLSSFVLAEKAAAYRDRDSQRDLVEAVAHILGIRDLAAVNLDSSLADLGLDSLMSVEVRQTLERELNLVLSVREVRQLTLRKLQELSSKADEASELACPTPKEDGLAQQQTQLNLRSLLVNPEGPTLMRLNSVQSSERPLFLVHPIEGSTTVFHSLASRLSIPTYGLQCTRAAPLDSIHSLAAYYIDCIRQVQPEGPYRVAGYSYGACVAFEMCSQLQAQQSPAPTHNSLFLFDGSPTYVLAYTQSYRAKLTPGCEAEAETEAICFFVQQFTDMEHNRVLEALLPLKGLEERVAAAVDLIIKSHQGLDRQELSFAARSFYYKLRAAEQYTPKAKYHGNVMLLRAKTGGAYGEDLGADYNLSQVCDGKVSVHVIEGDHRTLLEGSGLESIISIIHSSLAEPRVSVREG
Active and inactive are the calls of the source.

Record excerpt, results attached:
Cc1nc2ccc([N+](=O)[O-])cc2c(=O)n1Cc1ccc(Br)cc1 : 0.623 µM (active)
Cc1ccccc1Cn1c(C)nc2ccc([N+](=O)[O-])cc2c1=O : 9.84 µM (active)
Cc1ccc([N+](=O)[O-])cc1S(=O)(=O)NCC1COc2ccccc2O1 (centres undefined) : 5.17 µM (active)

Consider now this further compound.
Ask: GET /values?readout=IC50&item= COc1cc2c(C)nc3onc(-c4ccccc4)c3c2cc1OC
Reply: 7.51 µM (active)

###

Listed here: items and their measured EC50.
target: RNA-binding protein pos-1 (Caenorhabditis elegans, UniProt G5EF15); test: disruptors of C. elegans POS-1 RNA interaction – biochemical, fluorescence polarization, dose response (AID 1964);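 further: purified POS-1 fused to maltose binding protein made in E. coli; potency of compounds blocking POS-1 binding to fluorescent RNA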
Sequence (G5EF15 whole entry, the tested form may be a part): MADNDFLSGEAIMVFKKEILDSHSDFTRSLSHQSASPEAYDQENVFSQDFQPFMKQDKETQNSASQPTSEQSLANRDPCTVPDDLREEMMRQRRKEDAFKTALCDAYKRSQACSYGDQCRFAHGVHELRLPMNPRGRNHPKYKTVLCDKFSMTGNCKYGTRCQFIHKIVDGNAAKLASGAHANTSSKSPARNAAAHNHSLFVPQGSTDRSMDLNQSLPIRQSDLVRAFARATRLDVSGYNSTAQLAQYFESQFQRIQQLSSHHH

Record excerpt, results attached:
COc1ccc(C2=CC3=C(Br)C(=O)C(C)(OC(=O)c4ccc(Cl)nc4)C(=O)C3=CO2)cc1 (stereo unspecified) : > 300 µM (not active)
CCC(=O)OC1(C)C(=O)C=C2C=C(C3CC3)OC=C2C1=O (stereo unspecified) : > 300 µM (not active)
CC1(C)CC(=O)C2=C(C1)OC(N)=C(C#N)C2c1ccccc1OC(=O)N1CCOCC1 (stereo unspecified) : > 300 µM (not active)

Ask: GET /values?readout=EC50&item= Cc1nc2ccc(N3CCN(C)CC3)cc2nc1C
Reply: > 300 µM (not active)

Ask: GET /values?readout=EC50&item= CCCCOC(=O)CSC1=C(C#N)C(c2ccccc2OCC)C(C#N)C(=O)N1 (stereo unspecified)
Reply: > 300 µM (not active)

###

assay: luciferase reporter signal suppression in cells – H4 neuroglioma cells, luminescence, dose response (AID 1990); format: functional, cell-based
The source made the active and inactive calls.
value type: EC50

Record excerpt, results attached:
COc1ccccc1NS(=O)(=O)c1cccc(C(=O)N/N=C/c2cn(-c3ccccc3)nc2-c2ccccc2)c1 : > 120 µM (not active)
CC(C)n1c2ccccc2c2cc([N+](=O)[O-])ccc21 : 14.8 µM (active)
O=C(Nc1ccccc1)Nc1cc(OCC(F)(F)F)cc(OCC(F)(F)F)c1 : 6.81 µM (active)
CCN(CC)c1ccc2nc3ccccc3[n+](CC)c2c1 : 11.2 µM (active)
O=C(c1cc2nc(-c3ccccc3)cc(-c3ccccc3)n2n1)N1CCC2(CC1)OCCO2 : 24.2 µM (active)

Ask: GET /values?readout=EC50&item= CCOC(=O)c1[nH]c(Cc2[nH]c(C(=O)OCC)c(C)c2CCC(=O)OC)c(CCC(=O)OC)c1C
Reply: > 120 µM (not active)

###

target: FAD-linked sulfhydryl oxidase ALR (Homo sapiens, UniProt P55789); experiment: ALR-catalysed DTT oxidation blockers – biochemical, H2O2 detection, luminescence, cherry-pick, dose response (AID 493248)
Sequence (P55789 whole entry): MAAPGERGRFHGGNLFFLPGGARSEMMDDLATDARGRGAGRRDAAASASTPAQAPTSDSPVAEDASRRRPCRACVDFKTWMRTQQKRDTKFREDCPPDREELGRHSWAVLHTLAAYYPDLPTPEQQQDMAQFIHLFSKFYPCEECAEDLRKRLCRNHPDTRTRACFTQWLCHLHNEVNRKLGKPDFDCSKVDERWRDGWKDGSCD
Active and inactive are the calls of the source.
Listed here: items and their measured AC50.

Record excerpt, results attached:
CC1CCCCC12NC(=O)N(CC(=O)Nc1ccc(S(=O)(=O)Nc3ncccn3)cc1)C2=O (stereo unspecified) : 6470 nM (active)
CN(C)CCCNc1cc(C(C)(C)C)nc2c(-c3ccccc3)cnn12 : 2530 nM (active)
COC(=O)Nc1ccc(S(=O)(=O)Nc2ccc(O)cc2)cc1 : 1380 nM (active)
COc1ccc(C(=O)NNS(=O)(=O)c2ccc(OC)cc2)cc1 : 12700 nM (active)
Cc1ccc(Nc2nc(-c3ccc(O)cc3O)cs2)nc1 : 288 nM (active)

Ask: GET /values?readout=AC50&item= CC(NC(=O)C1CC1)C(c1cccs1)N1CCN(c2ccccc2)CC1 (stereo unspecified)
Reply: 362 nM (active)
